Numbers sourced from ChEMBL document CHEMBL1201862.

- Tested on: MDA-MB-435
- method-notes: NCI tumour cell line growth inhibition, 48 h
Counter-ions that a name gives are not always drawn. Calls of active or inactive are those of the source. Rule as the data show it: active = GI50 up to about 1.1 µM and inactive = higher.
Outcome codes: T for active, F for inactive

[
  {
    "compound": "COc1ccc2cc(-c3nc(N)nc(N4N=C(C)CC4(C)C)n3)c(=N)oc2c1",
    "assigned-label": "F"
  },
  {
    "compound": "CC(C)Cc1cnc(CC(C)C)c(=O)[nH]1",
    "assigned-label": "F"
  },
  {
    "compound": "COC(=O)c1c2c(cc3c1CC1(C3)Cc3cc4c(c(C(C)=O)c3C1)CCC4)C=CC2 (centres undefined)",
    "assigned-label": "F"
  },
  {
    "compound": "CSc1nc2c(=O)n(-c3ccccc3)c(=S)n(-c3ccccc3)c2s1",
    "assigned-label": "F"
  },
  {
    "compound": "c1ccc(-c2sc(-c3ccccc3)c3c2C2CCC3C2)cc1",
    "assigned-label": "F"
  },
  {
    "compound": "C=C1C[C@@H]2CC[C@@]34C[C@H]5O[C@H]6[C@@H](O3)[C@H]3O[C@H](CC[C@@H]3O[C@H]6[C@H]5O4)CC(=O)C[C@@H]3[C@@H](OC)[C@@H](C[C@H](O)CN)O[C@H]3C[C@H]3O[C@@H](CC[C@@H]1O2)C[C@@H](C)C3=C [ERIBULIN MESYLATE]",
    "assigned-label": "T"
  },
  {
    "compound": "Cc1cc(C(=O)CSC(=S)SC(C)(C)C)ccc1Cl",
    "assigned-label": "F"
  },
  {
    "compound": "C[C@@H](CN1CC(=O)NC(=O)C1)N1CC(=O)NC(=O)C1",
    "assigned-label": "F"
  },
  {
    "compound": "Cc1ccc(N/N=C/C2=CC(C)(C)C(C#N)(C#N)C(O)=C2C#N)cc1",
    "assigned-label": "F"
  },
  {
    "compound": "N#Cc1c(NC(=O)CCC(=O)O)ccc2ccccc12",
    "assigned-label": "F"
  },
  {
    "compound": "O=C(NC(=O)c1c(F)cccc1F)Nc1cccc(Oc2ncc(Cl)cn2)c1",
    "assigned-label": "F"
  },
  {
    "compound": "C[n+]1c2ccc(Cl)cc2nc2cc(-c3ccccc3)ccc21",
    "assigned-label": "F"
  },
  {
    "compound": "CCOC(=O)C1(C(=O)OCC)C[C@@H](C)[C@@H](O)C1",
    "assigned-label": "F"
  },
  {
    "compound": "Nc1ccc(Sc2c3ccccc3nc3ccccc23)cc1",
    "assigned-label": "F"
  },
  {
    "compound": "CCOC(=O)c1cc(NC(=O)N(CCC#N)CCN(C(=O)N[C@@H](Cc2ccccc2)C(=O)N[C@@H](CC(C)C)C(=O)NC)c2ccccc2)ccc1OC",
    "assigned-label": "F"
  },
  {
    "compound": "CSc1nn(C)cc2nc(C)nc1-2",
    "assigned-label": "F"
  },
  {
    "compound": "C=C1CCC(CC[C@@H]2CC[C@]3(OC2)O[C@@]2(O)CC[C@]3(C)OC2(C)C)C(C)(C)[C@H]1C/C=C1/C(=O)OC[C@@H]1O (some centres undefined)",
    "assigned-label": "F"
  },
  {
    "compound": "Cc1n[nH]c(=O)n1/N=C/c1cccs1",
    "assigned-label": "F"
  },
  {
    "compound": "CCn1cc(C(=O)O)c(=O)c2cc3c(cc21)S(=O)(=O)CC3",
    "assigned-label": "F"
  }
]

----------
In this section, each of the molecules is paired with its reported GI50.
- Test system: MDA-MB-435
- method-notes: NCI tumour cell line growth inhibition, 48 h
Active and inactive are the calls of the source. Cut-off read from the data, not from the text of the source: active = GI50 up to about 1.1 µM and inactive = higher.

[
  {
    "molecule": "O=c1[nH]cnc2sc(=S)c3c(c12)CCC3",
    "GI50": "81.8 µM (inactive)"
  },
  {
    "molecule": "CC(C)(C)[Si](C)(C)OCC1OC(n2cnc3c(=O)[nH]c(N)nc32)C(O[Si](C)(C)C(C)(C)C)C1O[Si](C)(C)C(C)(C)C (centres undefined)",
    "GI50": "1.47 µM (inactive)"
  },
  {
    "molecule": "Cc1cn([C@@H]2O[C@H](CO[Si](C)(C)C(C)(C)C)[C@]3(O[C@H]3C(=O)NO)[C@H]2O[Si](C)(C)C(C)(C)C)c(=O)[nH]c1=O",
    "GI50": "2.07 µM (inactive)"
  },
  {
    "molecule": "COc1ccccc1-n1cnc2c1=NC(C)(C)NC=2C(N)=O",
    "GI50": "> 100 µM (inactive)"
  }
]

----------
- Test system: MDA-N
- method-notes: NCI tumour cell line growth inhibition, 48 h
Active and inactive are the calls of the source. No stated cut-off is given here; in the data, active = GI50 up to about 1.1 µM and inactive = higher.
Outcome codes: yes (active), no (inactive)

[
  {
    "compound": "CSc1nn(C)cc2nc(C)nc1-2",
    "tested-system": "MDA-N",
    "assigned-label": "no"
  },
  {
    "compound": "Oc1cc(-c2cccc(Cl)c2)nc2ncccc12",
    "tested-system": "MDA-N",
    "assigned-label": "yes"
  },
  {
    "compound": "COC(=O)N1CC(=O)C(C(=O)NC23CC4CC(CC(C4)C2)C3)C1 (stereo unspecified)",
    "tested-system": "MDA-N",
    "assigned-label": "no"
  },
  {
    "compound": "N#CC(C#N)C1CN2CCC1CC2 (stereo unspecified)",
    "tested-system": "MDA-N",
    "assigned-label": "no"
  },
  {
    "compound": "CCOC(=O)C1(C)CCCc2sc(N)c(C#N)c21 (stereo unspecified)",
    "tested-system": "MDA-N",
    "assigned-label": "no"
  },
  {
    "compound": "Cc1ccc(/C=C/C(=O)Oc2ccc(/C=C3\\CCC/C(=C\\c4ccc(OC(=O)/C=C/c5ccc(C)cc5)cc4)C3=O)cc2)cc1",
    "tested-system": "MDA-N",
    "assigned-label": "no"
  },
  {
    "compound": "CC(C)(C)OC/C=C(\\Br)CO",
    "tested-system": "MDA-N",
    "assigned-label": "no"
  },
  {
    "compound": "Clc1ccc(-c2nn3c(COc4cccc(OCc5nnc6sc(-c7ccc(Cl)cc7)nn56)c4)nnc3s2)cc1",
    "tested-system": "MDA-N",
    "assigned-label": "no"
  },
  {
    "compound": "Clc1ccc2c(NCCCC/N=C/c3ccccc3)ccnc2c1",
    "tested-system": "MDA-N",
    "assigned-label": "no"
  },
  {
    "compound": "O=C(/C=C/c1ccccc1)Oc1ccc(C(=O)/C=C/c2ccc(Cl)cc2)cc1",
    "tested-system": "MDA-N",
    "assigned-label": "no"
  },
  {
    "compound": "COc1ccccc1/C(=N\\OCCC(=O)O)c1cccs1",
    "tested-system": "MDA-N",
    "assigned-label": "no"
  }
]
